System: E. cloacae
Assay: AK assay 384-well format, Prestwick library screening
Type: cell-based, Enterobacter cloacae
Conditions: Enterobacter cloacae, 3 h; 50 μM final drug concentration; planktonic; cutoff for positive-scoring molecules 3-fold increase; read-out: AK-based Prestwick Library Screening Results, E. cloacae (fold increase in extracellular AK activity)
Counter-ions that a name gives are not always drawn.
QUANTITY_NAME: fold induction at 50 µM
Answers are plain numbers.

For orientation, consider the following solved cases.
NC[C@H]1O[C@H](O[C@H]2[C@H](O[C@@H]3O[C@H](CO)[C@@H](O)[C@H]3O)[C@@H](O)[C@H](N)C[C@@H]2N)[C@H](N)[C@@H](O)[C@@H]1O [Ribostamycin sulfate salt]    1.2
O=C1OC(CN2CCOCC2)CN1/N=C/c1ccc([N+](=O)[O-])o1 (stereo not drawn) [Furaltadone hydrochloride]    1.7
CC(=O)/N=c1/sc(S(N)(=O)=O)nn1C [Methazolamide]    0.7

Provide fold induction at 50 µM values for the following items, in order.
1. Cc1cc(=O)oc2cc(O)ccc12 [Hymecromone]
2. CC(C(=O)O)c1ccc(N2Cc3ccccc3C2=O)cc1 (stereo not drawn) [Indoprofen]

**A:**
1. 1.1
2. 1.5

**Q:** Reported fold induction at 50 µM, molecule CC[C@@H](C(=O)[C@@H](C)[C@@H](O)[C@H](C)CCc1ccc(C)c(O)c1C(=O)O)[C@H]1O[C@](CC)([C@H]2CC[C@](O)(CC)[C@H](C)O2)C[C@@H]1C [Lasalocid sodium salt] : ____
**A:** 1

----------
Provide the reported pIC50 of each item.
Biological target: S. aureus DNA gyrase (Staphylococcus aureus, UniProt P0A0K8+P20831)
Sequence (P0A0K8 whole entry): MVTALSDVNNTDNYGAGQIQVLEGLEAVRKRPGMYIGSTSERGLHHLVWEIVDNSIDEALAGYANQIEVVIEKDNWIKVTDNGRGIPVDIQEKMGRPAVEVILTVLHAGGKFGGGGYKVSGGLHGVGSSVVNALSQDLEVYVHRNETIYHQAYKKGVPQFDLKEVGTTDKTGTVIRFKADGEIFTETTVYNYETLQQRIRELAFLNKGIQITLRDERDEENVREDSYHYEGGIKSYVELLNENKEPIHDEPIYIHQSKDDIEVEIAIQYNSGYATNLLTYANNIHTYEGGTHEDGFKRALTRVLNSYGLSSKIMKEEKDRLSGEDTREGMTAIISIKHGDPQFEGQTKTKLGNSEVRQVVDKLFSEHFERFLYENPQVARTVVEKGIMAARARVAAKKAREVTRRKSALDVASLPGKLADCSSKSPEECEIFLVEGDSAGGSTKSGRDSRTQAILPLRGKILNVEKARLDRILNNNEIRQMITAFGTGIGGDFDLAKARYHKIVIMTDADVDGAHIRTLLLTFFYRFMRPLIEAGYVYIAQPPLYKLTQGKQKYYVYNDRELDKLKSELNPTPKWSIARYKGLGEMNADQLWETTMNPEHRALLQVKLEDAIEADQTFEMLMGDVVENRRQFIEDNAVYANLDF
Sequence (P20831 whole entry): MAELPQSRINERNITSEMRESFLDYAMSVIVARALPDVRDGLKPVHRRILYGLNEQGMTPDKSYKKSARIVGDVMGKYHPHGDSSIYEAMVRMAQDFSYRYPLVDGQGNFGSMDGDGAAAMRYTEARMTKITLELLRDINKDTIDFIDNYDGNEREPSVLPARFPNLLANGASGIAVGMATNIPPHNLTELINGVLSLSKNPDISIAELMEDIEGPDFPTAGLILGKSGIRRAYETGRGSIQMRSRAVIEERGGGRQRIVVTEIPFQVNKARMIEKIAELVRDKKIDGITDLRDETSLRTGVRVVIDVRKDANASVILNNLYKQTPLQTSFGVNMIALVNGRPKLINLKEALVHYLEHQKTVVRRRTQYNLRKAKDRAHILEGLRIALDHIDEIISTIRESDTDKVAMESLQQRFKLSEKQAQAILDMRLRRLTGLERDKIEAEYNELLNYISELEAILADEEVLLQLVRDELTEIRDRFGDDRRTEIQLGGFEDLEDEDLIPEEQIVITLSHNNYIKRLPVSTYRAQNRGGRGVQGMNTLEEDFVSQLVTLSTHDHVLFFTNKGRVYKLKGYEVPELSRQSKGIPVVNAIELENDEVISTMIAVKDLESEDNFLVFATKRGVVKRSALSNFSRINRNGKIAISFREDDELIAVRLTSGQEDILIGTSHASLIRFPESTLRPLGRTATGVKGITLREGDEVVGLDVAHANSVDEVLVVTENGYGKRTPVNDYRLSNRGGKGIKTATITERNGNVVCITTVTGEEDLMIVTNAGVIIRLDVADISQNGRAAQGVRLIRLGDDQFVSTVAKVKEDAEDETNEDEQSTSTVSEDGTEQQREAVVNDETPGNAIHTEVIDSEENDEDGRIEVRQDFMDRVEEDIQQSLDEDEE
Experiment: S. aureus DNA gyrase supercoiling assay (TopoGEN)
One number for each entry, as −log10 of the molar value.

Batch request: pIC50 for each of the following compounds.
1. O=[N+]([O-])c1ccc(CCN2CCC(C(O)(c3ccccc3)c3ccccc3)CC2)cc1 [Compound 29]
2. CC(C)(C)c1ccc(CN2CCC(C(O)(c3ccccc3)c3ccccc3)CC2)cc1 [Compound 26]

**A:**
1. 3.20
2. 3.66

Answer for every listed entry: what is its pIC50? The entries follow.
1. CC(C)(C)c1ccc(C(=O)N2CCC(C(O)(c3ccccc3)c3ccccc3)CC2)cc1 [Compound 27]
2. CC(C)(C)c1ccc(NCCCN2CCC(C(O)(c3ccccc3)c3ccccc3)CC2)cc1 [Compound 41]
3. OC(c1ccccc1)(c1ccccc1)C1CCN(CCc2ccc(-c3cccnc3)cc2)CC1 [Compound 35]

**A:**
3.66
3.37
3.25

Record pIC50 for all entries; do not skip any.
1. OC(c1ccccc1)(c1ccccc1)C1CCN(CCc2ccc(-c3ccncc3)cc2)CC1 [Compound 33]
2. COC(=O)c1ccc(C(O)CCCN2CCC(C(O)(c3ccccc3)c3ccccc3)CC2)cc1 (stereo not shown) [Compound 18]
3. CC(C)(C)c1ccc(OCCCN2CCC(C(O)(c3ccccc3)c3ccccc3)CC2)cc1 [Compound 42]
4. CC(C)(C)c1ccc(C(O)CCCCN2CCC(C(O)(c3ccccc3)c3ccccc3)CC2)cc1 (stereo not shown) [Compound 2]
5. CC(C)(C)c1cccc(CCN2CCC(C(O)(c3ccccc3)c3ccccc3)CC2)c1 [Compound 39]

**A:**
1: 3.68; 2: 3.03; 3: 3.66; 4: 3.69; 5: 3.66

----------
Test system: E. cloacae
Test: AK assay 384-well format, Prestwick library screening
Format: cell-based, Enterobacter cloacae
Conditions: Enterobacter cloacae, 3 h, planktonic E. cloacae; 50 μM final drug concentration; 384-well; […]; read-out: AK-based Prestwick Library Screening Results: E. cloacae (increase in extracellular AK activity)
Structures can show the parent of a compound that is named as a salt.
Assign fold induction at 50 µM to each entry below.
Numbers only.

CN1CCCN(C(c2ccccc2)c2ccc(Cl)cc2)CC1 (stereo not drawn) [Homochlorcyclizine dihydrochloride]    1.8
CCN1CCCC1CNC(=O)c1cc(S(N)(=O)=O)ccc1OC (stereo not drawn) [Sulpiride]    1.6
CC(Cc1ccc(O)cc1)NCC(O)c1cc(O)cc(O)c1 (stereo not drawn) [Fenoterol hydrobromide]    1.4

For every listed record, write down its fold induction at 50 µM.
1. O=C(O)c1ccccc1Nc1cccc(C(F)(F)F)c1 [Flufenamic acid]
2. CN1CCC(=C2c3ccccc3Sc3ccccc32)CC1 [Pimethixene maleate]
3. N=C(N)NCCN1CCCCCCC1 [Guanethidine sulfate]

**A:**
1.8
1.4
1.4

----------
System: E. faecium
Assay: AK assay 384-well format, Prestwick library screening
Format: cell-based, Enterococcus faecium
Conditions: Enterococcus faecium, 3 h; planktonic E. faecium; 50 μM final drug concentration; cutoff for positive-scoring molecules 3-fold increase; read-out: AK-based Prestwick Library Screening Results, E. faecium (increase in extracellular AK activity)
Counter-ions that a name gives are not always drawn.
Please respond with reported fold induction at 50 µM for every item in the list.
One number for each entry.

Completed entries (count: 3):
CC(=O)Nc1ccc(OCC(O)CNC(C)C)cc1 (stereo not shown) [Practolol]    0.9
CCOC(=O)OC(C)OC(=O)[C@@H]1N2C(=O)[C@@H](NC(=O)[C@H](N)c3ccccc3)[C@H]2SC1(C)C (stereo partly shown) [Bacampicillin hydrochloride]    1.1
COc1cc2c(cc1OC)-c1cc3ccc(OC)c(OC)c3c[n+]1CC2 [Palmatine chloride]    1

Kindly review the next compound as well.
**Q:** Given COc1cc(OC)c(C(=O)CCCN2CCCC2)c(OC)c1 [Buflomedil hydrochloride] , state its recorded fold induction at 50 µM.
**A:** 0.8

----------
Please go through the items and note down their fold induction at 50 µM.
System: E. coli
Experiment: AK assay 384-well format, Prestwick library screening
Format: cell-based, Escherichia coli
Conditions: Escherichia coli, 3 h; 50 μM final drug concentration; planktonic; cutoff for positive 3-fold increase; read-out: AK-based Prestwick Library Screening Results, E. coli (fold increase in extracellular AK activity)
Where a name gives a salt, the structure may show the parent alone.
Answers are plain numbers.

Cc1ncc(C[n+]2csc(CCO)c2C)c(N)n1 [Thiamine hydrochloride]    1.4
N=C(N)N1CCc2ccccc2C1 [Debrisoquin sulfate]    1.2

# per-item lookup of fold induction at 50 µM; items listed below
1. CC1=CC(=O)c2ccccc2C1=O [Menadione]
2. NCC[C@H](O)C(=O)N[C@@H]1C[C@H](N)[C@@H](O[C@H]2O[C@H](CN)[C@@H](O)[C@H](O)[C@H]2O)[C@H](O)[C@H]1O[C@H]1O[C@H](CO)[C@@H](O)[C@H](N)[C@H]1O [Amikacin hydrate]
3. CCCCC(CC)CN1CN(CC(CC)CCCC)CC(C)(N)C1 (stereo not drawn) [Hexetidine]
4. CN1C(C(=O)Nc2ccccn2)=C(O)c2sccc2S1(=O)=O [Tenoxicam]

**A:**
1. 1
2. 22.1
3. 1.5
4. 1.3

----------
I'd be grateful if you could share measured fold induction at 50 µM for these entries.
Tested on: K. pneumoniae
Assay: AK assay 384-well format, Prestwick library screening
Type: cell-based, Klebsiella pneumoniae
Settings: Klebsiella pneumoniae, 3 h; 50 μM final drug concentration; planktonic; cutoff for positive 3-fold increase; read-out: AK-based Prestwick Library Screening Results, K. pneumoniae (fold increase in extracellular AK activity)
Counter-ions that a name gives are not always drawn.

Consider the following illustrative entries.
NC(Cn1ccc(=O)c(O)c1)C(=O)O (stereo not drawn) [Mimosine]    0.9
CCCCC[C@H](O)/C=C/[C@@H]1[C@@H](C/C=C\CCCC(=O)O)[C@@H](O)C[C@H]1O [Dinoprost trometamol]    1
O=C1C[C@@H](c2ccc(O)cc2)Oc2cc(O)cc(O)c21 [Naringenine]    0.9
CC(=O)Nc1c(I)c(C(=O)N[C@H]2C(O)O[C@H](CO)[C@@H](O)[C@@H]2O)c(I)c(N(C)C(C)=O)c1I (stereo partly drawn) [Metrizamide]    1
CCOC(=O)[N-]c1cn(N2CCOCC2)n[o+]1 [Molsidomine]    1

Please state fold induction at 50 µM for every molecule in the list that follows.
1. O=C(N/N=C/c1ccc([N+](=O)[O-])o1)c1ccc(O)cc1 [Nifuroxazide]
2. O=c1c(O)c(-c2cc(O)c(O)c(O)c2)oc2cc(O)cc(O)c12 [Myricetin]
3. O=C1c2ccccc2C(=O)C1c1ccccc1 [Phenindione]
4. CC[C@H]1CN2CC[C@H]1C[C@H]2[C@H](O)c1ccnc2ccc(OC)cc12 [Hydroquinine hydrobromide hydrate]

**A:**
1. 1.8
2. 0.9
3. 1.1
4. 1.3

----------
Would you kindly list fold induction at 50 µM for each of these compounds?
System: A. baumannii strain 98-37-09
Experiment: AK assay 384-well format, Prestwick library screening
Format: cell-based, Acinetobacter baumannii
Settings: Acinetobacter baumannii, 983709, 3 h; planktonic A. baumannii; 50 μM final drug concentration; positive cutoff 3-fold increase; read-out: AK-based Prestwick library screening result, A. baumannii (fold increase in extracellular AK activity)
Counter-ions that a name gives are not always drawn.
One number for each entry.

Please review the following examples before continuing.
CCC[C@H](N[C@@H](C)C(=O)N1[C@H](C(=O)O)C[C@@H]2CCCC[C@@H]21)C(=O)OCC    1.4
CC(=O)O[C@H]1C[C@@H]2CC[C@@H]3[C@H](CC[C@@]4(C)[C@H]3C[C@H]([N+]3(C)CCCCC3)[C@@H]4OC(C)=O)[C@@]2(C)C[C@@H]1[N+]1(C)CCCCC1 [Pancuronium bromide]    1.1
CN(C)CCCSC(=N)N [Dimaprit dihydrochloride]    0.8

**Q:** Item CCCCN(CCCC)CCC(O)c1cc2c(Cl)cc(Cl)cc2c2cc(C(F)(F)F)ccc12 (stereo not shown) [Halofantrine hydrochloride] has what recorded fold induction at 50 µM?
**A:** 1.3
